tested on: MW 30 kDa; assay: competitive ABPP of pPAFAH versus proteome hydrolases – biochemical, gel-based, FP-Rh fluorescence, complex proteome, SAR compounds, selectivity assay for pPAFAH inhibitor project, SAR follow-up (AID 588774); conditions: at 10 µM, hits give high values
Returns one of Criterion met or Criterion not met; Criterion met when inhibition is >= 80%.

> print(dat)
                               input.smiles  assigned.category
1  Cc1cc(N2CCN(C(=O)Oc3ccc(C(F)(F)F)cc3)CC2)c2ccccc2n1  Criterion not met
2  Cc1cc(N2CCN(C(=O)n3ncc(-c4ccccc4)n3)CC2)c2ccccc2n1      Criterion met
3           O=C(Oc1noc2cc(Cl)ccc12)N1CCOCC1      Criterion met
4  Cc1cc(N2CCN(C(=O)n3oc4cc(Cl)ccc4c3=O)CC2)c2ccccc2n1  Criterion not met
5           O=C(Oc1noc2cc(Cl)ccc12)N1CCCCC1      Criterion met
6  Cc1cc(N2CCN(C(=O)Oc3ccc(C4CCCCC4)cc3)CC2)c2ccccc2n1  Criterion not met
7  Cc1cc(N2CCN(C(=O)n3ncc(-c4ccc([N+](=O)[O-])cc4)n3)CC2)c2ccccc2n1      Criterion met
8  Cc1cc(N2CCN(C(=O)n3ncc(-c4ccc(OC(F)(F)F)cc4)n3)CC2)c2ccccc2n1      Criterion met
9  Cc1cc(N2CCN(C(=O)Oc3ccc([N+](=O)[O-])cc3)CC2)c2ccccc2n1  Criterion not met
